Assay: protein stability index of a GFP-peptide fusion (GPS, HEK-293T) (PSI 1-6); higher = more stable;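 also: 24-mer peptide tiles fused after GFP, lentivirally expressed, FACS-sorted into six equal bins by GFP/DsRed ratio, decoded by Illumina sequencing, PSI is the read-weighted mean bin number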
Conditions: treatment: MLN4924 1 uM, 8 h; c terminus: a fixed tail appended
PARAMETER MEASURED: protein stability index

{"RECORD SEQUENCE": "GTPSPSRSRDSNSGPEEPLLEEEE [RTN2]", "NUMBER": 5.72}
{"RECORD SEQUENCE": "QHVPEELDLSSSSQMSPLSLYGEN [ATF6]", "NUMBER": 5}
{"RECORD SEQUENCE": "CRVFWWLGDRDRSRAALVCRKWNQ [FBXO39]", "NUMBER": 2.06}
{"RECORD SEQUENCE": "APAASEGAAAPATPTPVAAALDAC [SNAP91]", "NUMBER": 5.18}
{"RECORD SEQUENCE": "SGSQRHMVGQKDSVILSVKFSPFG [TLE6]", "NUMBER": 2.49}
{"RECORD SEQUENCE": "NSAHHCVVEVENFLFVLGGEDQWN [KLHL14]", "NUMBER": 2.07}
{"RECORD SEQUENCE": "FPAEERARVLDRRGCSRVEGGGTS [ANKRD9]", "NUMBER": 4.53}
{"RECORD SEQUENCE": "TDLIWKNQNSWGTGEDVKVILKNS [LMNB1]", "NUMBER": 3.74}
{"RECORD SEQUENCE": "ILPKELQAWVQKHHPENGEETVTM [ZNF396]", "NUMBER": 3.58}
{"RECORD SEQUENCE": "DDDDDDAQILPSRVQGGCYRFDSS [DRICH1]", "NUMBER": 4.88}
{"RECORD SEQUENCE": "NQAPSGPVASSGEFFGSASQPAVE [CLINT1]", "NUMBER": 5.24}
{"RECORD SEQUENCE": "LCDGNPRRPSPVLRHLELLDEFAR [SCNN1D]", "NUMBER": 3.53}
{"RECORD SEQUENCE": "VDRTHALMKKIGQCPMRVQKEVAG [CRYL1]", "NUMBER": 3.65}
{"RECORD SEQUENCE": "MCLSPDRKMEVEELSPLALGRFSL [CDC25B]", "NUMBER": 2.71}
{"RECORD SEQUENCE": "KELGTLIPKSSDPEMRWNKGTILK [TFE3]", "NUMBER": 4.01}
{"RECORD SEQUENCE": "QICAQVSFFFPPVNLPISFFRKLL [NLN]", "NUMBER": 3.45}
{"RECORD SEQUENCE": "QALEQFAAAAAHSTPVRREVTDKE [EPB41L3]", "NUMBER": 4.89}
{"RECORD SEQUENCE": "KKAAESLRRSVEKYNSARADFEQK [FCHO1]", "NUMBER": 4.43}
{"RECORD SEQUENCE": "TNPDLYPVRRIDGLTDVSQIITVT [IQUB]", "NUMBER": 3.06}
{"RECORD SEQUENCE": "RSLLGYDPQILQMLKEEHQIILEN [RAD54B]", "NUMBER": 3.11}
{"RECORD SEQUENCE": "SKQTEKDPGVQELEALIDTIQKQL [EFHC1]", "NUMBER": 3.86}
{"RECORD SEQUENCE": "DFLMCYSVAEGYYSHRETVNGSWY [CASP6]", "NUMBER": 2.86}
{"RECORD SEQUENCE": "VHNAMDNYECNLYTFLYLVCISTK [FEM1B]", "NUMBER": 2.2}
{"RECORD SEQUENCE": "VESSLDKVVLSDAYAHPQQKVAVY [TRADD]", "NUMBER": 3.26}
{"RECORD SEQUENCE": "MALSNHYRSEDLLDVDTAAGGFQQ [FBXO3]", "NUMBER": 4.04}
{"RECORD SEQUENCE": "PVENIPEIILYWKHSTIFDVGENL [SLC25A25]", "NUMBER": 2.02}
{"RECORD SEQUENCE": "EIDEKVTDLVQFLLFKYQMKEPIT [MAGEA10]", "NUMBER": 1.75}
{"RECORD SEQUENCE": "HEAFKDELKTFRLKTRSWAGERSR [CDC25B]", "NUMBER": 3.8}
{"RECORD SEQUENCE": "DYIMDEDQSKLAGLLDLNNAILQL [ESRRG]", "NUMBER": 2.6}
{"RECORD SEQUENCE": "FIEIELDRQELTYQELLRVCCCEL [ANKRD40]", "NUMBER": 2.67}
{"RECORD SEQUENCE": "AQGFAADVRLMFSNCYKYNPPDHE [BRD3]", "NUMBER": 2.8}
{"RECORD SEQUENCE": "IVIGILSAYISNYAFANVFHGWKY [SLC2A12]", "NUMBER": 3.25}
{"RECORD SEQUENCE": "RPPFETTNLKETYRCIREARYTMP [PLK2]", "NUMBER": 2.31}
{"RECORD SEQUENCE": "FKGNKYWAVQGQNVLHGYPKDIYS [MMP1]", "NUMBER": 2.46}
{"RECORD SEQUENCE": "KSMAWCENSICVGFKRDYYLIRVD [VPS39]", "NUMBER": 2.39}
{"RECORD SEQUENCE": "IRRPRLYLLQWLKSDKALMMLFND [PLK2]", "NUMBER": 2.75}
{"RECORD SEQUENCE": "LNLDIGQVYKETRLFLDGEEEKEW [AASDHPPT]", "NUMBER": 4.09}
{"RECORD SEQUENCE": "AQNAVRLHYGLPVVVKLLHPPSHW [CTNNB1]", "NUMBER": 2.23}
{"RECORD SEQUENCE": "RIRSYLREVSSYPSTVGAEAQEEF [DFFB]", "NUMBER": 3.58}
{"RECORD SEQUENCE": "GVIQSVSSWKHGSGTQYVSTRQTQ [C18orf25]", "NUMBER": 3.52}
{"RECORD SEQUENCE": "LACGTMSSTCGQLASYPLALVRTR [SLC25A25]", "NUMBER": 2.36}
{"RECORD SEQUENCE": "VTVRVPTHEEGSYLFWEFATDNYD [ACBD3]", "NUMBER": 2.31}
{"RECORD SEQUENCE": "KREELCRQIQEEEDEKQRLQNEVR [SSNA1]", "NUMBER": 5.1}
{"RECORD SEQUENCE": "EHKGWYSWVLSMLYGFLLTFGFIT [CLPTM1]", "NUMBER": 2.62}
{"RECORD SEQUENCE": "PTLWTEQVKSRQNKTNKNSVSSCD [SMOC2]", "NUMBER": 4.84}
{"RECORD SEQUENCE": "AVGSGERRGGGPVFPAPVVGSGGA [ZBTB22]", "NUMBER": 4.45}
{"RECORD SEQUENCE": "EKLTKITRTGPSAWETKKILAVSF [PCMTD2]", "NUMBER": 2.37}
{"RECORD SEQUENCE": "HTTIVATRHYRPPEVILELGWAQP [CLK3]", "NUMBER": 2.23}
{"RECORD SEQUENCE": "PNEAMVVSGFCRSPPVMVAGGRVF [FLOT1]", "NUMBER": 2.42}
{"RECORD SEQUENCE": "EEFCEFVKSNTEQMREAFATAFSK [ZBED1]", "NUMBER": 3.98}
{"RECORD SEQUENCE": "SEAKSHSSADDASAWSNIQEAPLQ [FAN1]", "NUMBER": 5.04}
{"RECORD SEQUENCE": "VGEFPIISPGRVYEYTSCTTFSTT [FBXO3]", "NUMBER": 2.33}
{"RECORD SEQUENCE": "PHRVLETRGHAISILFGFWTSFIC [SMIM2]", "NUMBER": 2.32}
